test system: Trypanosoma cruzi; assay: Trypanocidal activity against amastigotes form of Trypanosoma cruzi CA-I/72 infected in mouse C2C12 cells assessed as inhibition of parasite replication incubated for 48 hrs by DAPI staining based microscopic analysis; assay type: functional, organism-based; details: CA-I/72, C2C12, 48 h
pEC50: −log10 of the molar value.
Our labelling divides records by pEC50 into ranges: class 1 = under 5, class 2 = from 5 up to 6, class 3 = 6 and over

- OCCCNc1nc(NCc2ccccc2)c2ccccc2n1: class 3
- O=C(c1ccc(Nc2nc(NCCN3CCOCC3)c3ccccc3n2)cc1)N1CCOCC1: class 1
- O=C(Cn1ccnc1[N+](=O)[O-])NCc1ccccc1 [BENZNIDAZOLE]: class 2
- COc1ccc(Nc2nc(NCc3ccccc3)c3ccccc3n2)cc1: class 3
- Oc1ccc(Nc2nc(NCc3ccccc3)c3ccccc3n2)cc1: class 2
- Fc1cccc(Nc2nc(Nc3ccccc3)nc3ccccc23)c1: class 3
- O=C(c1ccc(Nc2nc(NCCCO)c3ccccc3n2)cc1)N1CCOCC1: class 1
- OCCCNc1nc(Nc2cccc(F)c2)c2ccccc2n1: class 3
- Cn1cnc2c(NCc3ccccc3)nc(Nc3ccccc3)nc21: class 2
- c1ccc(CNc2nc(Nc3ccccn3)nc3ccccc23)cc1: class 2
- c1ccc(CNc2nc(Nc3nccs3)nc3ccccc23)cc1: class 2
